test.name: Solubility in 4-isopropylbiphenyl at 0.5 wt % by visual check
Assay type: physicochemical
Design: key: A: solution that contained no insoluble element; B: solution that contained insoluble element(s)
settings: added to 4-isopropylbiphenyl at 0.5 wt %, visual check
recorded.metric: Solubility

INSERT INTO assay_data (line_notation, test_value) VALUES
  ('c1ccc(-c2cc(-c3ccccc3)c(-c3c4ccccc4c(-c4ccccc4)c4cc5ccccc5cc34)c(-c3ccccc3)c2)cc1', 'A'),
  ('c1ccc(-c2ccc(-c3c4ccccc4c(-c4ccc(-c5ccccc5)cc4)c4cc5ccccc5cc34)cc2)cc1', 'B'),
  ('c1ccc(-c2ccc(-c3ccccc3)c(-c3ccc(-c4cc(-c5ccccc5)ccc4-c4ccccc4)c4cc5cc6ccccc6cc5cc34)c2)cc1', 'A');

====

test.name: Viscosity of the solvent
Format: physicochemical
settings: neat solvent, 22 degrees C
recorded.metric: Viscosity
State the result as a value with its unit after it.

Solved cases below.
INSERT INTO measurements (line_notation, test_value) VALUES
  ('CC(C)c1ccc(-c2ccccc2)cc1', '6.9 cP'),
  ('c1ccc2c(c1)CCCC2', '2.3 cP'),
  ('c1ccc(C2CCCCC2)cc1', '2.6 cP');

Consider now this further molecule.
## Task What value of Viscosity has been reported for the following molecule? Cc1ccccc1
## Result 0.65 cP

====

test.name: Solubility in 4-isopropylbiphenyl at 0.5 wt % by visual check
Assay type: physicochemical
Set-up: key: A: solution that contained no insoluble element; B: solution that contained insoluble element(s)
settings: added to 4-isopropylbiphenyl at 0.5 wt %, visual check
recorded.metric: Solubility

INSERT INTO results (line_notation, test_value) VALUES
  ('c1cc(-c2ccc(-c3ccc4ccccc4c3)cc2)cc(-c2c3ccccc3c(-c3ccc(-c4cccc5ccccc45)cc3)c3ccccc23)c1', 'A'),
  ('c1cc(-c2ccc3ccccc3c2)cc(-c2c3ccccc3c(-c3cccc4ccccc34)c3ccccc23)c1', 'B'),
  ('c1ccc2cc(-c3ccc4cc(-c5c6ccccc6c(-c6ccc(-c7cccc8ccccc78)cc6)c6ccccc56)ccc4c3)ccc2c1', 'A');

====

test.name: Viscosity of the solvent
Format: physicochemical
settings: neat solvent, 22 degrees C
Field: Viscosity. Provide a value for each of the molecules that follow.
Numbers only, in cP.

Solved cases below.
INSERT INTO results (molecule, recorded_metric, test_value) VALUES
  ('CCCCCCCCCCCCc1ccccc1', 'Viscosity', 4.5),
  ('CCc1cccc(-c2ccccc2)c1', 'Viscosity', 5.6),
  ('Cc1cc(C)cc(C)c1', 'Viscosity', 0.76),
  ('Cc1ccc(Cc2ccc(C)c(C)c2)cc1C', 'Viscosity', 33.6),
  ('CC(C)(C)c1ccccc1', 'Viscosity', 1.2);

## Task What value of Viscosity has been reported for the following molecule? CCC(C)c1ccccc1 (stereo not drawn)
## Result 1.0

====

test.name: Solubility in 4-isopropylbiphenyl at 0.5 wt % by visual check
Type: physicochemical
Set-up: key: A: solution that contained no insoluble element; B: solution that contained insoluble element(s)
settings: added to 4-isopropylbiphenyl at 0.5 wt %, visual check
recorded.metric: Solubility

Solved cases below.
INSERT INTO assay_data (line_notation, recorded_metric, test_value) VALUES
  ('c1cc(-c2ccc3ccccc3c2)cc(-c2c3ccccc3c(-c3ccc4cc(-c5ccc6ccccc6c5)ccc4c3)c3ccccc23)c1', 'Solubility', 'B'),
  ('c1ccc(-c2ccc(-c3c4ccccc4c(-c4ccccc4)c4ccccc34)cc2)cc1', 'Solubility', 'B'),
  ('c1ccc(-c2c3ccccc3c(-c3cccc(-c4cccc(-c5c6ccccc6c(-c6ccccc6)c6ccccc56)c4)c3)c3ccccc23)cc1', 'Solubility', 'B'),
  ('c1ccc(-c2ccc(-c3c4ccccc4c(-c4ccc(-c5ccccc5)cc4-c4ccccc4)c4cc5ccccc5cc34)c(-c3ccccc3)c2)cc1', 'Solubility', 'B'),
  ('c1ccc2cc(-c3ccc(-c4c5ccccc5c(-c5ccc(-c6cccc7ccccc67)cc5)c5ccccc45)cc3)ccc2c1', 'Solubility', 'A'),
  ('c1ccc(-c2cc(-c3ccc4ccccc4c3)cc(-c3c4ccccc4c(-c4ccc5ccccc5c4)c4ccccc34)c2)cc1', 'Solubility', 'A');

Consider now this further compound.
## Task What value of Solubility has been reported for the following compound? c1ccc(-c2c3ccccc3c(-c3ccccc3)c3c(-c4ccccc4)c4ccccc4c(-c4ccccc4)c23)cc1
## Result B

The values you see were collected from patent US20080206447A1.
